Assay remarks: Venglustat plasma pharmacokinetics, LEAP trial
Type: in vivo, human
Test conditions: human, plasma, po, 15 mg
Experimental readout: Tmax (h)
Express the result in h but write the number alone.

Any idea what Tmax was measured for CC(C)(NC(=O)O[C@@H]1CN2CCC1CC2)c1csc(-c2ccc(F)cc2)n1 [Venglustat] ?
2
